Tested on: normal human serum (NHS)
Assay: Complement-mediated hemolytic activity assay
Format: cell-based
Conditions: Erythrocyte, lysis of rabbit erythrocytes (RE) by NHS, GVB0 buffer with 10 mM Mg-EGTA, 37°C, read-out: Hemolysis IC50
PARAMETER MEASURED: log10 of IC50 (log10 of the value in nM)
Values are log10 of IC50 in nM.

For orientation, consider the following solved cases.
COc1cc(C)c2[nH]ccc2c1CN1CC[C@H](C=C(F)F)C[C@H]1c1ccc(C(=O)O)cc1C (single isomer, unassigned) [Compound 33-P1]: 1.91
Cc1cc(C2CC2)c(CN2CC[C@H](C=C(F)F)C[C@H]2c2ccc(C(=O)O)cc2)c2cc[nH]c12 [Compound 60-P1]: 2.06
COc1cc([C@@H]2C[C@@H](C=C(F)F)CCN2Cc2c(OC)cc(C)c3[nH]ccc23)ccc1C(=O)O [Compound 36-P1]: 1.64
[2H]C([2H])([2H])Oc1cc(C)c2[nH]ccc2c1CN1CC[C@H](C=C(F)F)C[C@H]1c1ccc(C(=O)O)cc1 [Compound 39-P1]: 2.05
COc1cc(C)c2[nH]ccc2c1CN1CC[C@H](C=C(F)F)C[C@H]1c1ccc(C(=O)O)c(O)c1 [Compound 40-P1]: 1.34
COc1cc(C)c2[nH]ccc2c1CN1CC[C@H](C=C(F)F)C[C@H]1c1ccc(C(=O)O)c(Cl)c1 [Compound 35-P1]: 1.79

Record log10 of IC50 per entry; entries follow.
1. COc1cc(C)c2[nH]ccc2c1CN1CCC(=C(F)F)C[C@H]1c1ccc(C(=O)O)cc1 [Compound 19]
2. COc1cc(C)c2[nH]ccc2c1CN1CCC2(CC(=C(F)F)C2)C[C@H]1c1ccc(C(=O)O)cc1 (stereo partly drawn) [Compound 1]
3. COc1cc(Cl)c2[nH]ccc2c1CN1CC[C@H](C=C(F)F)C[C@H]1c1ccc(C(=O)O)cc1 [Compound 38-P1]

1: 3.45; 2: 1.94; 3: 2.14

Numbers sourced from patent EP4752140A1.
